Target: T1, recombinant Motavizumab human IgE (rMota-hIgE) (human, UniProt P01854 1-428)
T1 construct: also called Recombinant IgE (argenx)
T1 sequence (P01854 other isoform, or with tags, fused parts or gaps limits assumed, form in doubt): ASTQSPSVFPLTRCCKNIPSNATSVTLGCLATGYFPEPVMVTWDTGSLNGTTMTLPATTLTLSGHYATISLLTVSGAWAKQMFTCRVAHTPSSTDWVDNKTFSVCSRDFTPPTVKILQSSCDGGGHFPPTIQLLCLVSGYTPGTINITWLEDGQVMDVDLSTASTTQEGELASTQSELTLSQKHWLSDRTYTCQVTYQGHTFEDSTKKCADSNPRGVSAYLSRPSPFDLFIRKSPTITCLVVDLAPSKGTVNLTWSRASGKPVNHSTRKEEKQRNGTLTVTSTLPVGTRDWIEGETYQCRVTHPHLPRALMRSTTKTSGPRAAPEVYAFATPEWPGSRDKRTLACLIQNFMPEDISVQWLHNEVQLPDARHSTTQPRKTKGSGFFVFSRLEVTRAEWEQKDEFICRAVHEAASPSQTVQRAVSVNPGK
Assay: hIgE binding ELISA, pH 5.5
MEASUREMENT_NAME: EC50
Record the result as a number with its unit.

Here is how some binders turned out for EC50.
OMA VH15 - VL3S31H (antibody, V domains shown) VH: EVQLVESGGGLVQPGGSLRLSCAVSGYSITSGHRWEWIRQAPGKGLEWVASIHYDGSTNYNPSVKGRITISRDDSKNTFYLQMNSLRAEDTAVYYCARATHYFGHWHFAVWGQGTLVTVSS VL: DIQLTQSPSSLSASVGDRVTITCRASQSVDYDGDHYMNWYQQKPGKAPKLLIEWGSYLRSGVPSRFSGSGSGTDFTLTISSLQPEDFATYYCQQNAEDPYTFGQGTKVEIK ... 0.0179 µg/mL
Oma VH15W100b - VL3 (antibody, V domains shown) VH: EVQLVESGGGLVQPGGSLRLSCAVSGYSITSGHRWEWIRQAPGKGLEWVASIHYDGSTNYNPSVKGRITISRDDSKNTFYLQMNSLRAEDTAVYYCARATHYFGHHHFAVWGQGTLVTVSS VL: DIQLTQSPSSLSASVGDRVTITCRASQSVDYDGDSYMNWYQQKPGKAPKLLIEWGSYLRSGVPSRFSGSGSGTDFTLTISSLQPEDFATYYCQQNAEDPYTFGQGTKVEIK ... 0.0326 µg/mL
OmaVH15G55H - VL3S31H (antibody, V domains shown) VH: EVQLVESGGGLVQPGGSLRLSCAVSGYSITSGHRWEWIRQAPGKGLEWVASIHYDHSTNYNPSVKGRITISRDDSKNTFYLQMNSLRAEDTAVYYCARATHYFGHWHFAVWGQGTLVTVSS VL: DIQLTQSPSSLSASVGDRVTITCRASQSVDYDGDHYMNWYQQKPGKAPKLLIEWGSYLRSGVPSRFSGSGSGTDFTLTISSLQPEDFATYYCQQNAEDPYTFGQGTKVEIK ... 0.023 µg/mL
OMA VH15 - VL3 (antibody, V domains shown) VH: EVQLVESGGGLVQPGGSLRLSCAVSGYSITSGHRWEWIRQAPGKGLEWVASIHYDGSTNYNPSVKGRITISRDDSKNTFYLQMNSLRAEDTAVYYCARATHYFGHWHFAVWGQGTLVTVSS VL: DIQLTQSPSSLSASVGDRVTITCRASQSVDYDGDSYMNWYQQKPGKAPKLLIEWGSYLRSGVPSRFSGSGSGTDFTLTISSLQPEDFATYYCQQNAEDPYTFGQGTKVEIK ... 0.0217 µg/mL
OMA VH15 - VL3D28H (antibody, V domains shown, also called OMA VH15 VL3D25H) VH: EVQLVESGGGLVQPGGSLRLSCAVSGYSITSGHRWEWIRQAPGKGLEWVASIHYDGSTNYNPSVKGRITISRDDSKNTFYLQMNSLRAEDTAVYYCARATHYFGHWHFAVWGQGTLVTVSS VL: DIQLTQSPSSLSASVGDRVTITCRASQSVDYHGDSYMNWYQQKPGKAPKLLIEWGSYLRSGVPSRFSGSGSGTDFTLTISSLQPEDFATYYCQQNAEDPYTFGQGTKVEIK ... 0.0164 µg/mL

# next binder below
Q: Using the record for OmaVH15G55HW100b - VL3 (antibody, V domains shown) VH: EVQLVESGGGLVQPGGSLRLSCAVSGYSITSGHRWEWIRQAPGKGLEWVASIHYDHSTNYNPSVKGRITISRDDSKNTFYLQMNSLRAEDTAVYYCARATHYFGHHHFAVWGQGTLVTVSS VL: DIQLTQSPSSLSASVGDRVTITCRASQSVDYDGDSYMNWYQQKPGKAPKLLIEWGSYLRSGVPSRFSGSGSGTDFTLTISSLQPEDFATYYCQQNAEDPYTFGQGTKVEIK , report its EC50.
A: 0.221 µg/mL
